Attribution: patent US8952157B2

- TARGET_SYSTEM: UniProt P10415
- PROCEDURE_TEXT: Time Resolved-Fluorescence Resonance Energy Transfer (TR-FRET) Bcl-2 binding assay
- CONDITION_SET: GST-Bcl-2 1 nM, F-Bak peptide probe 100 nM, Tb-anti-GST antibody 1 nM; Ki by Wang's equation
ENDPOINT_LABEL: pKi
Hey, just a heads up that pKi is the negative log base 10 of the concentration in molar.

A selection of reference data follows.
# SMILES_REPR, pKi
rows = [
    ("CC1(C)CCC(CN2CCN(c3ccc(C(=O)NS(=O)(=O)c4ccc(NCCCN5CCOCC5)c([N+](=O)[O-])c4)c(Oc4cccc(F)c4F)c3)CC2)=C(c2ccc(Cl)cc2)C1", 10.18),
    ("CN1CCN(Nc2ccc(S(=O)(=O)NC(=O)c3ccc(N4CCN(CC5=C(c6ccc(Cl)cc6)CC(C)(C)CC5)CC4)cc3Oc3ccccc3Cl)cc2[N+](=O)[O-])CC1", 9.81),
    ("COCCNc1ccc(S(=O)(=O)NC(=O)c2ccc(N3CCN(CC4=C(c5ccc(Cl)cc5)CC(C)(C)CC4)CC3)cc2Oc2cc3cc[nH]c3cc2F)cc1[N+](=O)[O-]", 9.96),
    ("CC1(C)CCC(CN2CCN(c3ccc(C(=O)NS(=O)(=O)c4ccc(NC[C@H]5CCCOC5)c([N+](=O)[O-])c4)c(Oc4cc5cc[nH]c5cc4F)c3)CC2)=C(c2ccc(Cl)cc2)C1", 9.78),
    ("Cc1nc2cc(Oc3cc(N4CCN(Cc5ccccc5-c5ccc(Cl)cc5)CC4)ccc3C(=O)NS(=O)(=O)c3ccc(NCC4CCOCC4)c([N+](=O)[O-])c3)ccc2s1", 7.97),
]

Query string: Could you share which pKi value was measured for CNc1ncc(Oc2cc(N3CCN(CC4=C(c5ccc(Cl)cc5)CC(C)(C)CC4)CC3)ccc2C(=O)NS(=O)(=O)c2ccc(NCC3CCOCC3)c([N+](=O)[O-])c2)cc1Cl ?
Result string: 8.63

Query string: Same thing, different compound: CC1(C)CCC(CN2CCN(c3ccc(C(=O)NS(=O)(=O)c4ccc(NCC5CCOCC5)c([N+](=O)[O-])c4)c(Oc4ccc5c(c4)CC(=O)N5)c3)CC2)=C(c2ccc(Cl)cc2)C1
Result string: 7.55

Query string: Same thing, different compound: CN1CCN(Nc2ccc(S(=O)(=O)NC(=O)c3ccc(N4CCN(CC5=C(c6ccc(Cl)cc6)CC(C)(C)OC5)CC4)cc3Oc3cccc(F)c3F)cc2[N+](=O)[O-])CC1
Result string: 10.46

Query string: Same thing, different compound: CC1(C)CCC(CN2CCN(c3ccc(C(=O)NS(=O)(=O)c4ccc(NC5CCN(CC6CC6)CC5)c([N+](=O)[O-])c4)c(Oc4cccc(Cl)c4)c3)CC2)=C(c2ccc(Cl)cc2)C1
Result string: 10.27

Query string: Same thing, different compound: CN(C)CCc1ccccc1Oc1cc(N2CCN(Cc3ccccc3-c3ccc(Cl)cc3)CC2)ccc1C(=O)NS(=O)(=O)c1ccc(NCC2CCOCC2)c([N+](=O)[O-])c1
Result string: 9.04

----------
- TARGET_SYSTEM: GST-Bcl-2 (Homo sapiens (Human), UniProt P10415)
- Sequence (P10415 whole entry): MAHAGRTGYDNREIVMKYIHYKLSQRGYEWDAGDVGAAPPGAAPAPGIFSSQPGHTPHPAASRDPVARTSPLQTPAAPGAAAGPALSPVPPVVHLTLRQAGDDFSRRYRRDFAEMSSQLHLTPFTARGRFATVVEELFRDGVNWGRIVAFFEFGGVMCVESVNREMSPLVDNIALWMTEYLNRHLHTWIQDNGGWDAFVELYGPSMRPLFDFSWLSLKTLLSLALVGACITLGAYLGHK
- PROCEDURE_TEXT: Time Resolved-Fluorescence Resonance Energy Transfer (TR-FRET) Bcl-2 binding assay
- CONDITION_SET: GST-Bcl-2 1 nM, F-Bak peptide probe 100 nM, Tb-anti-GST antibody 1 nM; Ki by Wang's equation
Ki less than 3 nM is Satisfied; Ki greater than or equal to 3 nM is Not satisfied.

Take a look at these entries with their results.
# MOLECULE, CLASSIFICATION
measured = [
    ("CN1CCC(Nc2ccc(S(=O)(=O)NC(=O)c3ccc(N4CCN(CC5=C(c6ccc(Cl)cc6)CC(C)(C)CC5)CC4)cc3Oc3ccc(O)cc3Cl)cc2[N+](=O)[O-])CC1 [Example 207]", "Satisfied"),
    ("CC1(C)CCC(CN2CCN(c3ccc(C(=O)NS(=O)(=O)c4ccc(OCC5(F)CCN(C(CF)CF)CC5)c([N+](=O)[O-])c4)c(Oc4cnc(N)c(Cl)c4)c3)CC2)=C(c2ccc(Cl)cc2)C1 [Example 371]", "Satisfied"),
    ("CC1(C)CCC(CN2CCN(c3ccc(C(=O)NS(=O)(=O)c4ccc(NCC5CCOC5)c([N+](=O)[O-])c4)c(Oc4cc5cc[nH]c5cc4F)c3)CC2)=C(c2ccc(Cl)cc2)C1 (stereo not shown) [Example 332]", "Satisfied"),
    ("CC(=O)Nc1cccc(Oc2cc(N3CCN(Cc4ccccc4-c4ccc(Cl)cc4)CC3)ccc2C(=O)NS(=O)(=O)c2ccc(NCC3CCOCC3)c([N+](=O)[O-])c2)c1 [Example 17]", "Not satisfied"),
    ("CN1CCC(Nc2ccc(S(=O)(=O)NC(=O)c3ccc(N4CCN(CC5=C(c6ccc(Cl)cc6)CC(C)(C)CC5)CC4)cc3Oc3cccc(F)c3)cc2[N+](=O)[O-])CC1 [Example 112]", "Satisfied"),
]

Query string: # strict comparison: is reported Ki < 3 nM? input = CN(C)C(=O)COc1cccc(Oc2cc(N3CCN(Cc4ccccc4-c4ccc(Cl)cc4)CC3)ccc2C(=O)NS(=O)(=O)c2ccc(NCC3CCOCC3)c([N+](=O)[O-])c2)c1 [Example 105]
Result string: Not satisfied

Query string: Same thing, different molecule: CN1CCN(Nc2ccc(S(=O)(=O)NC(=O)c3ccc(N4CCN(CC5=C(c6ccc(Cl)cc6)CC(C)(C)CC5)CC4)cc3Oc3cc4cc[nH]c4cc3Cl)cc2[N+](=O)[O-])CC1 [Example 244]
Result string: Satisfied

Query string: Same thing, different molecule: C#Cc1cc(S(=O)(=O)NC(=O)c2ccc(N3CCN(CC4=C(c5ccc(Cl)cc5)CC(C)(C)OC4)CC3)cc2Oc2cc3cc[nH]c3cc2F)cnc1OCC1CCOCC1 [Example 323]
Result string: Not satisfied

Query string: Same thing, different molecule: CNC(=O)c1cccc(Oc2cc(N3CCN(Cc4ccccc4-c4ccc(Cl)cc4)CC3)ccc2C(=O)NS(=O)(=O)c2ccc(NCCCN3CCOCC3)c([N+](=O)[O-])c2)c1 [Example 103]
Result string: Not satisfied

Query string: Same thing, different molecule: CN(C)CCOc1ccc(-c2ccc(Cl)cc2)c(CN2CCN(c3ccc(C(=O)NS(=O)(=O)c4ccc(NC5CCN(C)CC5)c([N+](=O)[O-])c4)c(Oc4cccc(Cl)c4)c3)CC2)c1 [Example 37]
Result string: Satisfied
